Test system: AsPC-1 cells
experimental_protocol: AsPC-1 CTG proliferation assay (120 h) (pancreatic cancer, G12D)
Format: cell-based
experimental_conditions: Homo sapiens, ASPC1
measure_name: IC50 (nM)

- structure_smiles: "COCCNC(=O)c1ccn(-c2cc(O[C@@H](C)[C@@H]3CCCN3C)nc(-c3onc4c3CCC[C@@]43CCCc4sc(N)c(C#N)c43)n2)n1"
  observed_result: 696
- structure_smiles: "C[C@H](Oc1cc(-c2ccn3ncnc3c2)nc(-c2onc3c2CCC[C@@]32CCCc3sc(N)c(C#N)c32)n1)[C@@H]1CCCN1C"
  observed_result: 3710
- structure_smiles: "C[C@H](Oc1cc(-n2ccc(C(=O)NC3(C)COC3)n2)nc(-c2noc3c2CCC[C@@]32CCCc3sc(N)c(C#N)c32)n1)[C@@H]1CCCN1C"
  observed_result: 1380
- structure_smiles: "C[C@H](Oc1cc(N2CCNCC2)nc(-c2noc3c2CCC[C@@]32CCCc3sc(N)c(C#N)c32)n1)[C@@H]1CCCN1C"
  observed_result: 2310
- structure_smiles: "C[C@H](Oc1cc(N2CC[C@H](N(C)C)C2)nc(-c2noc3c2CCC[C@@]32CCCc3sc(N)c(C#N)c32)n1)[C@@H]1C[C@@H](F)CN1C"
  observed_result: 220
- structure_smiles: "C[C@H](Oc1cc(-n2cncn2)nc(-c2onc3c2CCC[C@@]32CCCc3sc(N)c(C#N)c32)n1)[C@@H]1CCCN1C"
  observed_result: 7070
